Measured protein stability index of individual entries
Test system: Saccharomyces cerevisiae
Test: protein stability index of tFT-peptide fusion (C-terminal peptide) (PSI (0-1 scale)); higher = more stable (slower turnover)
Details: genetic background: das1 deletion; temperature: 30 C
readout.kind: protein stability index

> print(dat)
                              sequence.input  endpoint.result
 1     LLYHMDLLLKVK [VID28 C-terminal 12 aa]            0.299
 2     HEVQNAEQEVAQ [MAK16 C-terminal 12 aa]            0.673
 3      YEEGESIFGSLF [REV7 C-terminal 12 aa]             0.71
 4      LFDARFERKNPH [SRB8 C-terminal 12 aa]            0.737
 5   DESVDMNVGISY [YCL046W C-terminal 12 aa]            0.721
 6     LSVHPLKPCDPN [INP52 C-terminal 12 aa]            0.684
 7  EVPGWQEYYDKL [YOR133W; YDR385W C-terminal 12 aa]             0.72
 8      KEYISDQRKKRK [LOA1 C-terminal 12 aa]            0.682
 9      LSQIVDIWNKDI [MNT2 C-terminal 12 aa]            0.741
10   DSDLFFVAEAIS [YIL032C C-terminal 12 aa]            0.737
11      NIEKGVNFVASK [MDH1 C-terminal 12 aa]            0.684
12      AREAVVRAGFDS [YIH1 C-terminal 12 aa]            0.729
13      DMLYDELMKTME [KSS1 C-terminal 12 aa]            0.703
14   NMLFICLNVPHY [YGL114W C-terminal 12 aa]            0.656
15      VVEKVSSITNRN [SRF1 C-terminal 12 aa]            0.687
16      HHNQIGVPRVEN [GID8 C-terminal 12 aa]            0.679
17      YSILWSDVYPDS [PDR1 C-terminal 12 aa]            0.741
18      PLWNQRRDDLFH [NIT2 C-terminal 12 aa]             0.74
19   PSTLIITTLLFK [YJR023C C-terminal 12 aa]            0.618
20   FAKLAAIPCSNA [YMR265C C-terminal 12 aa]            0.553
21      ERYTSIESEIVV [APE4 C-terminal 12 aa]            0.674
22      SSESEAVKKAKS [CIC1 C-terminal 12 aa]            0.668
23      YSDGRNYKESSI [CSS3 C-terminal 12 aa]             0.69
24      AMMKAEENFVKS [MAG1 C-terminal 12 aa]            0.655
25   IRCVFMFRTNAK [YLR296W C-terminal 12 aa]            0.578
26  AKWSISHKSNTG [YIL066W-A C-terminal 12 aa]            0.694
27     NSIVKQFKEIFK [AIM41 C-terminal 12 aa]            0.709
28      KQIAKQSSKMMK [VMR1 C-terminal 12 aa]            0.686
29      QMTRNVNNNDFS [YAH1 C-terminal 12 aa]            0.711
30      ELASSILKELKL [KIN1 C-terminal 12 aa]            0.707
31      AHYNNGLQWFSD [EMC4 C-terminal 12 aa]            0.708
32     GSNAEEDDDLYS [CDC48 C-terminal 12 aa]            0.703
33      ETMVRIRVDGNE [DAD2 C-terminal 12 aa]            0.665
34  LTMLPPMAPLLS [YMR158W-B C-terminal 12 aa]            0.684
35      LSDASYDTYELV [SPG5 C-terminal 12 aa]            0.703
36   GVYMELVKVLFG [YLR177W C-terminal 12 aa]            0.607
37  RRQSLPKRFPLI [YAR035C-A C-terminal 12 aa]            0.717
38  IKLLKTHNRMSL [YNL277W-A C-terminal 12 aa]            0.685
39   PSYCSLRWSHRT [YLR169W C-terminal 12 aa]            0.733
40      IDFLVEEATLNE [YAP3 C-terminal 12 aa]            0.701
41     KKKSRMFSFRKS [UBP13 C-terminal 12 aa]            0.702
42      NNNMESFPEMSP [GLE1 C-terminal 12 aa]            0.726
43      NQRSFNDKSKRD [CAX4 C-terminal 12 aa]            0.692
44     KGGEDGSLVSSN [NHP10 C-terminal 12 aa]            0.688
45      KMPLVPTHYYKQ [GCV1 C-terminal 12 aa]            0.706
46      SLEHFIDSVSSL [TRP4 C-terminal 12 aa]             0.72
47     KTSSKGNARTLL [FMP49 C-terminal 12 aa]            0.698
48     TSPIGEFQSIKH [SPT21 C-terminal 12 aa]            0.731
49   SQTQAGSAYYTK [YOR268C C-terminal 12 aa]            0.699

* * *

System: Saccharomyces cerevisiae
Experiment: protein stability index of tFT-peptide fusion (C-terminal peptide) (PSI (0-1 scale)); higher = more stable (slower turnover)
Settings: genetic background: wild type; temperature: 30 C
Threshold rule: protein stability index greater than or equal to 0.7 is true; below that, false.

> print(dat)
    sequence.input  class.assignment
 1    RTRSKVSVSFND              true
 2    TAHPCVYRRGAV             false
 3    YFFFFLHFNFAF             false
 4    KKKKKKTNKKKE              true
 5    QLVCCAKCGAVG             false
 6    FYSRSVTLEVLH             false
 7    PLRPPAPRHSPP              true
 8    VSPAPSAILRLD             false
 9    VQFISLVCLFRF             false
10    VQRFLGSCPLSI             false
11    NELSPSQDLPSS             false
12    KECTWRQGKYNA              true
13    PAPSLPPPRLAP             false
14    WGYEGGWGGHGT             false
15    YPPLPVRPLVLL             false
16    PLIDRSTCSLSG             false
17    SHGLLTLRLALA             false
18    NIRYRQKEKKND             false
19    LLHFVLYFLSCT             false
20    WVGYAWDGKFDL              true
21    DRHGLVGGWWAW              true
22    AISVISNLTKLE             false
23    KTALWQPNCKTD             false
24    FPPLPPPPPPLN              true
25    HVMLPFTGIGKF             false
26    ETEASKGSRNEE             false
27    RWSEHGFLVFLS             false
28    ELHPLPLPPPAV              true
29    SSPFPPLTTPSP              true

* * *

A collection of sequences and their measured protein stability index
Tested on: Saccharomyces cerevisiae
Assay: protein stability index of tFT-peptide fusion (C-terminal peptide) (PSI (0-1 scale)); higher = more stable (slower turnover)
Settings: genetic background: das1 deletion; temperature: 37 C
readout.kind: protein stability index

> print(dat)
    sequence.input  endpoint.result
 1    WVVWVLVGGFGG            0.481
 2    SFFFSFFPYFFC            0.732
 3    WIYKIVTYEKKS            0.705
 4    GTRAGNPDRQRS            0.714
 5    LRLLSLIPPLSC             0.53
 6    VVSGLNYCLVLS            0.523
 7    LRSPCALVLLLI            0.556
 8    DVHPLFYCIPVY           0.0568
 9    SYLPSHVYIFLL            0.442
10    TFLCSSLALAVI            0.498
11    GLFVGCWVFLVL            0.525
12    LNSSVLRLRFFV            0.756
13    LGFHFFFTLIFF              0.4
14    YYFCMYFKVTLC            0.285
15    VVPVGLYSVILV            0.484
16    SLFSPPVLATPS            0.705
17    IFFYPFLIFCFV            0.396
18    IFVLLSYYPLFV            0.422
19    FPPFALLLIIND            0.581
